Cited source for all entries: paper PMC5540273

# Tested on: p38-gamma
# Construct: gene MAPK12
# study_conditions: concentration: 1 μM, replicates: in singlicate; n = 1;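 also: KINOMEscan kinase panel screen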
Reported %Inh values follow for various compounds
Express it in %; write the number only.

- compound: "COc1cc(Nc2nccc(N3CCC(NC(=O)C(C)c4ccc(Cl)cc4)C3)n2)cc(OC)c1OC (stereo not drawn)"
  measurement_target: "p38-gamma"
  units_symbol: "%"
  %Inh: 1
- compound: "Cc1cccc(-c2cc(-c3c[nH]nc3-c3ccccn3)ccn2)c1"
  measurement_target: "p38-gamma"
  units_symbol: "%"
  %Inh: 12
- compound: "O=C(NCc1cccs1)c1cc(C(=O)c2c(Cl)cccc2Cl)c[nH]1"
  measurement_target: "p38-gamma"
  units_symbol: "%"
  %Inh: 0
- compound: "CCn1c(-c2ccoc2)nc2cnccc21"
  measurement_target: "p38-gamma"
  units_symbol: "%"
  %Inh: 12
- compound: "O=c1cc(N2CCOCC2)nc2n(Cc3ccc(F)c(Cl)c3)ccn12"
  measurement_target: "p38-gamma"
  units_symbol: "%"
  %Inh: 0

Ask: Record lookup: for p38-gamma, what %Inh belongs to Cc1nnc(-c2ccc3ncn(-c4ccc(S(C)=O)cc4)c3c2)o1 (stereo not drawn) ?
Result: 0

Ask: // next record COC(=O)c1c(-c2ccccc2)c2cc(Br)ccc2c(=O)n1Cc1ccc(NC(=O)CCC(=O)O)cc1
Result: 21

Ask: // next record Cn1c(=O)c(F)c(Nc2ccc(I)cc2F)c2c(=O)n(OC[C@H](O)CO)cnc21
Result: 39

Ask: // next record CCCC(=O)Nc1n[nH]c2ncc(-c3cccc4ccccc34)cc12
Result: 39

* * *

# Test system: VRK2
# study_conditions: concentration: 1 μM, replicates: in singlicate; n = 1
recorded_metric: %Inh (%)
Express it in %; write the number only.

Please review the following examples before continuing.
- molecule: "Nc1ncnc2c1ncn2-c1cccc(F)c1"
  units_symbol: "%"
  numeric_readout: 29
- molecule: "Cc1cccc(-c2cc(-c3c[nH]nc3-c3ccccn3)ccn2)c1"
  units_symbol: "%"
  numeric_readout: 26
- molecule: "COc1ccc(-c2coc3ccc(-c4nnc(SCc5cccc(C#N)c5)o4)cc23)cc1"
  units_symbol: "%"
  numeric_readout: 0
- molecule: "Nc1ncnc2c1ncn2-c1cccc2ccccc12"
  units_symbol: "%"
  numeric_readout: 29
- molecule: "Nc1nc(N)c2nc(-c3ccccc3)[nH]c2n1"
  units_symbol: "%"
  numeric_readout: 5

Ask: Requested field: %Inh. Item: COc1ccc(-n2cnc3c(N)ncnc32)cc1
Result: 0

Ask: // next record Nc1nc(-c2ccccc2F)c(-c2ccnc3ccccc23)s1
Result: 37

Ask: // next record FC(F)(F)c1ccc(-c2ncn(CCCN3CCOCC3)c2-c2ccncc2)cc1
Result: 42

Ask: // next record Cl.NS(=O)(=O)c1cccc(Nc2cc(-c3ccc(F)cc3)n[nH]2)c1
Result: 18

* * *

Reported %Inh values follow for various compounds
# Tested on: JNK3
# Construct: gene MAPK10
# study_conditions: concentration: 1 μM, replicates: in singlicate; n = 1
Express it in %; write the number only.

- compound: "O=C(Nc1n[nH]c2nc(-c3ccccc3)c(Br)cc12)C1CC1 [SB-708998]"
  measurement_target: "JNK3"
  numeric_readout: 0
- compound: "Cc1ccc(Oc2ccc(Nc3ncnc4cc[nH]c34)cc2C)cn1"
  measurement_target: "JNK3"
  numeric_readout: 57
- compound: "C[C@@H]1CC[C@H](C(=O)NC2CCCCC2)CN1c1cc(-c2ccc3c(N)n[nH]c3c2)nc(N)n1 [GSK2291363]"
  measurement_target: "JNK3"
  numeric_readout: 10
- compound: "CCCC(=O)Nc1n[nH]c2ncc(-c3cccc4ccccc34)cc12 [SB-642057]"
  measurement_target: "JNK3"
  numeric_readout: 0

Ask: Record lookup: for JNK3, what %Inh belongs to Cc1c(Cn2c(C)nn3c(=O)cc(N4CCO[C@H](C)C4)nc23)cccc1C(F)(F)F [GSK2373690] ?
Result: 17

Ask: // next record Nc1n[nH]c2nnc(-c3ccccc3)c(-c3ccccc3)c12 [GW554060]
Result: 15

Ask: // next record COC(=O)c1c(-c2ccccc2)c2cc(C)ccc2c(=O)n1Cc1ccccc1
Result: 48

Ask: // next record CC(C)(C)c1ccc(C(=O)Nc2cn3cc(-c4ccccc4)ccc3n2)cc1
Result: 0

Ask: // next record Nc1n[nH]c2ncc(-c3ccccc3)cc12 [SB-517081]
Result: 5

* * *

Reported %Inh values follow for various compounds
# System: HCK
# study_conditions: concentration: 1 μM, replicates: in singlicate; n = 1
The answer consists of two parts: a number and, after it, its unit.

- mol: "COC(=O)c1c(-c2ccccc2)c2cc(Br)ccc2c(=O)n1Cc1ccc(NC(=O)CCC(=O)O)cc1"
  %Inh: "14%"
- mol: "Cc1cccc(-c2cc(-c3c[nH]nc3-c3ccccn3)ccn2)c1"
  %Inh: "0%"
- mol: "Cc1nnc(-c2ccc(C)c(-c3ccc(C(=O)O)cc3)c2)o1"
  %Inh: "0%"
- mol: "Fc1cccc(CSc2nnc(-c3ccc4c(c3)CCO4)o2)c1"
  %Inh: "1%"
- mol: "COc1ccc(-n2cnc3c(N)ncnc32)cc1"
  %Inh: "0%"

Ask: Requested field: %Inh. Item: CCC(=O)c1c(-c2ccccc2)c2cc(Cl)ccc2c(=O)n1Cc1cc(C(=O)NC2CC2)n(C)n1
Result: 22%

Ask: // next record Nc1nc(N)c2nc(-c3ccccc3)[nH]c2n1
Result: 3%

Ask: // next record Cc1nn2c(=O)cc(N3CCOCC3)nc2n1Cc1cccc(Cl)c1Cl
Result: 0%

Ask: // next record Nc1nc(-c2ccccc2F)c(-c2ccnc3ccccc23)s1
Result: 0%

Ask: // next record CN(C)c1cc(-c2ccc3c(N)n[nH]c3c2)nc(N)n1
Result: 0%

* * *

# Test system: EPHA6
# study_conditions: concentration: 1 μM, replicates: in singlicate; n = 1
Reported %Inh values follow for various compounds
Express it in %; write the number only.

Ask: Record lookup: for EPHA6, what %Inh belongs to O=C1NC(=O)C(c2ccccc2)=C1Nc1cccc(O)c1 ?
Result: 10

Ask: // next record Cc1c(Cn2c(C)nn3c(=O)cc(N4CCO[C@H](C)C4)nc23)cccc1C(F)(F)F
Result: 0

Ask: // next record CN(C)c1cc(-c2ccc3c(N)n[nH]c3c2)nc(N)n1
Result: 0

Ask: // next record COc1cc(OC)cc(-c2cc3cnc(N)nc3nc2NC(=O)NC(C)(C)C)c1
Result: 0

Ask: // next record Nc1ncnc2c1ncn2-c1cccc2ccccc12
Result: 0

Ask: // next record COc1cc(Nc2ccnc3ccc(C(F)(F)F)cc23)cc(OC)c1OC
Result: 0

Ask: // next record O=c1cc(N2CCOCC2)nc2n(Cc3ccc(F)c(Cl)c3)ccn12
Result: 0

Ask: // next record CCCNC(=O)Nc1ccc(Oc2ncnc3ccn(C)c23)cc1
Result: 8

Ask: // next record COc1cccc(-n2cnc3c(N)ncnc32)c1
Result: 0

Ask: // next record Cc1ccccc1COc1cc(-n2cnc3cc(Cl)ccc32)sc1C(N)=O
Result: 0

* * *

# Tested on: PIK3CB
# study_conditions: concentration: 1 μM, replicates: in singlicate; n = 1
recorded_metric: %Inh (%)
Express it in %; write the number only.

Please review the following examples before continuing.
- molecule: "O=C(NCc1cccs1)c1cc(C(=O)c2c(Cl)cccc2Cl)c[nH]1"
  units_symbol: "%"
  numeric_readout: 0
- molecule: "CCCNC(=O)Nc1ccc(Oc2ncnc3ccn(C)c23)cc1"
  units_symbol: "%"
  numeric_readout: 0
- molecule: "COc1cc2ncn(-c3cc(OCc4ccc(S(C)(=O)=O)cc4)c(C(N)=O)s3)c2cc1OC"
  units_symbol: "%"
  numeric_readout: 30
- molecule: "OCCCNc1nccc(-c2c(-c3cccc(C(F)(F)F)c3)nn3cc(C(F)(F)F)ccc23)n1"
  units_symbol: "%"
  numeric_readout: 0
- molecule: "COc1cc(Nc2nccc(N3CCC(NC(=O)C4COc5ccccc5O4)C3)n2)cc(OC)c1OC (stereo not drawn)"
  units_symbol: "%"
  numeric_readout: 0
- molecule: "O=C1NC(=O)C(c2ccccc2)=C1Nc1cccc(O)c1"
  units_symbol: "%"
  numeric_readout: 0

Ask: Record lookup: for PIK3CB, what %Inh belongs to C[C@@H]1CC[C@H](C(=O)NC2CCCCC2)CN1c1cc(-c2ccc3c(N)n[nH]c3c2)nc(N)n1 ?
Result: 0

* * *

Reported %Inh values follow for various compounds
# Tested on: CDKL3
# study_conditions: concentration: 1 μM, replicates: in singlicate; n = 1
Express it in %; write the number only.

- mol: "COC(=O)c1c(-c2ccccc2)c2cc(C)ccc2c(=O)n1Cc1ccccc1"
  recorded_metric: "%Inh"
  units_symbol: "%"
  numeric_readout: 0
- mol: "O=C(Nc1n[nH]c2cc(-c3ccccc3F)ccc12)C1CC1"
  recorded_metric: "%Inh"
  units_symbol: "%"
  numeric_readout: 14
- mol: "Nc1nccc2scc(-c3ccc4c(c3)CCN4C(=O)Cc3ccccc3)c12"
  recorded_metric: "%Inh"
  units_symbol: "%"
  numeric_readout: 0
- mol: "COc1cc2ncn(-c3cc(OCc4ccncc4)c(C(N)=O)s3)c2cc1OC"
  recorded_metric: "%Inh"
  units_symbol: "%"
  numeric_readout: 0

Ask: Requested field: %Inh. Item: COc1cccc(C2=C(Nc3cccc(C(=O)O)c3)C(=O)NC2=O)c1
Result: 0
